PROCEDURE TEXT: Selectivity index, ratio of IC50 for cytotoxicity against human WI-38 cells to IC50 for antiproliferative activity against human HCT-116 cells
Assay type: toxicity, cell-based
TEST CONTEXT: WI-38 cells and HCT-116 cells, read-out: Ratio IC50
Each entry below carries its recorded selectivity ratio.
Reply with just the number.

>  <SMILES STRUCTURE>
CC(=O)Nc1nc(C(=O)NNC(=O)CN2CCCCC2)cs1

>  <TEST VALUE>
2.47

$$$$
>  <SMILES STRUCTURE>
CC(=O)Nc1nc(C(=O)NNC(=O)CCN2CCCCC2)cs1

>  <TEST VALUE>
3.37

$$$$

// query selectivity ratio value for entry CC(=O)Nc1nc(C(=O)NNC(=O)CN2CCOCC2)cs1
1.41

// query selectivity ratio value for entry CC(=O)Nc1nc(C(=O)NNC(=O)CCN2CCOCC2)cs1
4.06

// query selectivity ratio value for entry CC(=O)Nc1nc(C(=O)NNC(=O)CCN2CCN(C)CC2)cs1
2.54

* * *

System: HeLa
PROCEDURE TEXT: Antiproliferative activity against human HeLa cells assessed as inhibition of cell growth incubated for 24 hrs by MTT assay
Format: functional, cell-based
condition met if IC50 is below 40 µM. condition not met if not; exact matches included in condition not met.

>  <SMILES STRUCTURE>
CC(=O)Nc1nc(C(=O)NNC(=O)CN2CCOCC2)cs1

>  <DISCRETE LABEL>
condition met

$$$$
>  <SMILES STRUCTURE>
CC(=O)Nc1nc(C(=O)NNC(=O)CCN2CCN(C)CC2)cs1

>  <DISCRETE LABEL>
condition met

$$$$
>  <SMILES STRUCTURE>
CC(=O)Nc1nc(C(=O)NNC(=O)CCCl)cs1

>  <DISCRETE LABEL>
condition not met

$$$$
>  <SMILES STRUCTURE>
CC(=O)Nc1nc(C(=O)NNC(=O)CN2CCCCC2)cs1

>  <DISCRETE LABEL>
condition met

$$$$
>  <SMILES STRUCTURE>
CCC(=O)NNC(=O)c1csc(NC(C)=O)n1

>  <DISCRETE LABEL>
condition met

$$$$

IC50 strictly < 40 µM for this compound? CC(=O)Nc1nc(C(=O)NNC(=O)CCl)cs1
condition met

IC50 strictly < 40 µM for this compound? CC(=O)Nc1nc(C(=O)NNC(=O)CN2CCN(Cc3ccccc3)CC2)cs1
condition not met

* * *

PROCEDURE TEXT: Cytotoxicity against human WI-38 cells assessed as inhibition of cell growth incubated for 24 hrs by MTT assay
Format: toxicity, cell-based
y if IC50 at 24 h is below 40 µM. n if not; exact matches included in n.

>  <SMILES STRUCTURE>
CC(=O)Nc1nc(C(=O)NNC(=O)CCN2CCOCC2)cs1

>  <DISCRETE LABEL>
n

$$$$

IC50 at 24 h strictly < 40 µM for this molecule? CC(=O)Nc1nc(C(=O)NNC(=O)CCN2CCN(C)CC2)cs1
n

IC50 at 24 h strictly < 40 µM for this molecule? CC(=O)Nc1nc(C(=O)NNC(=O)CN2CCCCC2)cs1
n

IC50 at 24 h strictly < 40 µM for this molecule? CC(=O)Nc1nc(C(=O)NNC(=O)CN2CCOCC2)cs1
y

* * *

PROCEDURE TEXT: Selectivity index, ratio of IC50 for cytotoxicity against human WI-38 cells to IC50 for antiproliferative activity against human MCF7 cells
Format: toxicity, cell-based
TEST CONTEXT: WI-38 cells and MCF7 cells, read-out: Ratio IC50
MEASURED ENDPOINT: selectivity ratio
Reply with just the number.

Take a look at these entries with their results.
>  <SMILES STRUCTURE>
CC(=O)Nc1nc(C(=O)NNC(=O)CCN2CCCCC2)cs1

>  <TEST VALUE>
8.19

$$$$
>  <SMILES STRUCTURE>
CC(=O)Nc1nc(C(=O)NNC(=O)CCN2CCN(C)CC2)cs1

>  <TEST VALUE>
5.6

$$$$
>  <SMILES STRUCTURE>
CC(=O)Nc1nc(C(=O)NNC(=O)CN2CCCCC2)cs1

>  <TEST VALUE>
3.68

$$$$
>  <SMILES STRUCTURE>
CC(=O)Nc1nc(C(=O)NNC(=O)CN2CCOCC2)cs1

>  <TEST VALUE>
2.73

$$$$

// query selectivity ratio value for entry CC(=O)Nc1nc(C(=O)NNC(=O)CCN2CCOCC2)cs1
9.2

* * *

What follows is a collection of pIC50 values obtained with Epidermal growth factor receptor (Homo sapiens, UniProt P00533).
Sequence (P00533 whole entry): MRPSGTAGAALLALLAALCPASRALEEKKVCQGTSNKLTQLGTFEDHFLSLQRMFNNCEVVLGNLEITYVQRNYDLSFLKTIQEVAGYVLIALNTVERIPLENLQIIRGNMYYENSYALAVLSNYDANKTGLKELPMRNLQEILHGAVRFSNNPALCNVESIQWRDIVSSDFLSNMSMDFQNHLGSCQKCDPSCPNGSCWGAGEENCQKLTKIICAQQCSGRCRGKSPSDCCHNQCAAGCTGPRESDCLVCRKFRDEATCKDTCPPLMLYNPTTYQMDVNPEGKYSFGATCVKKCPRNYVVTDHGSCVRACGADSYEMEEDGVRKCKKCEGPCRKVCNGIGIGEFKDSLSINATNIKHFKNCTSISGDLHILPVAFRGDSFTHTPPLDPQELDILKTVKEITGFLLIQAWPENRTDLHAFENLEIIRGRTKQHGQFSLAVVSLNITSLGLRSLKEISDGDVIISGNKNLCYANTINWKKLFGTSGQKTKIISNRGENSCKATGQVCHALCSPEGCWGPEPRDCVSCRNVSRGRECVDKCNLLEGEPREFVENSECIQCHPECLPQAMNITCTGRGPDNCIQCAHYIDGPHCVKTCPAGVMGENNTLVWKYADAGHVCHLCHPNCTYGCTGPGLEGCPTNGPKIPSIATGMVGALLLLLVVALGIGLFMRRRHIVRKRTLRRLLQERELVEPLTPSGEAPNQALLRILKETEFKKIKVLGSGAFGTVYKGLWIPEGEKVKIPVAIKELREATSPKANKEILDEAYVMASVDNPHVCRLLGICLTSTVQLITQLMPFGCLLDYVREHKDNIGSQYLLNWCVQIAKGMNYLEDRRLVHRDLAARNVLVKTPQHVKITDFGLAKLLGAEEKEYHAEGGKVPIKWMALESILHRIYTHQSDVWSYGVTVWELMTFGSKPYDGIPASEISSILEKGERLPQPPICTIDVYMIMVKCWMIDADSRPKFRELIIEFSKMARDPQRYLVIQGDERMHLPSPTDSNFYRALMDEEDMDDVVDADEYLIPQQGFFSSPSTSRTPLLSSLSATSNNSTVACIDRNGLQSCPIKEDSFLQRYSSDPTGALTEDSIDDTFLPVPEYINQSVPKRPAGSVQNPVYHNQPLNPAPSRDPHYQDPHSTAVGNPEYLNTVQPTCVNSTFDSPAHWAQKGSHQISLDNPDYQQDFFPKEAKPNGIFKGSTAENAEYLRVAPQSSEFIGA
Convention used: pIC50 is expressed as -log10 of the molar concentration.

// query pIC50 value for entry CC(=O)Nc1nc(C(=O)NNC(=O)CCN2CCOCC2)cs1
6.84

// query pIC50 value for entry CC(=O)Nc1nc(C(=O)NNC(=O)CCN2CCCCC2)cs1
5.04

// query pIC50 value for entry CC(=O)Nc1nc(C(=O)NNC(=O)CCN2CCN(C)CC2)cs1
6.88

* * *

Each entry below carries its recorded selectivity ratio.
PROCEDURE TEXT: Selectivity index, ratio of IC50 for cytotoxicity against human WI-38 cells to IC50 for antiproliferative activity against human HEp-2 cells
Format: toxicity, cell-based
TEST CONTEXT: WI-38 cells and HEp-2 cells, read-out: Ratio IC50
Reply with just the number.

>  <SMILES STRUCTURE>
CC(=O)Nc1nc(C(=O)NNC(=O)CN2CCCCC2)cs1

>  <selectivity ratio>
3.07

$$$$
>  <SMILES STRUCTURE>
CC(=O)Nc1nc(C(=O)NNC(=O)CN2CCOCC2)cs1

>  <selectivity ratio>
2.17

$$$$
>  <SMILES STRUCTURE>
CC(=O)Nc1nc(C(=O)NNC(=O)CCN2CCCCC2)cs1

>  <selectivity ratio>
5.24

$$$$
>  <SMILES STRUCTURE>
CC(=O)Nc1nc(C(=O)NNC(=O)CCN2CCN(C)CC2)cs1

>  <selectivity ratio>
4.17

$$$$

// query selectivity ratio value for entry CC(=O)Nc1nc(C(=O)NNC(=O)CCN2CCOCC2)cs1
5.82

* * *

PROCEDURE TEXT: Selectivity index, ratio of IC50 for cytotoxicity against human WI-38 cells to IC50 for antiproliferative activity against human HeLa cells
Format: toxicity, cell-based
TEST CONTEXT: WI-38 cells and HeLa cells, read-out: Ratio IC50
MEASURED ENDPOINT: selectivity ratio
Reply with just the number.

Take a look at these entries with their results.
>  <SMILES STRUCTURE>
CC(=O)Nc1nc(C(=O)NNC(=O)CCN2CCOCC2)cs1

>  <selectivity ratio>
14

$$$$
>  <SMILES STRUCTURE>
CC(=O)Nc1nc(C(=O)NNC(=O)CN2CCOCC2)cs1

>  <selectivity ratio>
2.42

$$$$
>  <SMILES STRUCTURE>
CC(=O)Nc1nc(C(=O)NNC(=O)CN2CCCCC2)cs1

>  <selectivity ratio>
4.34

$$$$
>  <SMILES STRUCTURE>
CC(=O)Nc1nc(C(=O)NNC(=O)CCN2CCCCC2)cs1

>  <selectivity ratio>
23.9

$$$$

// below: selectivity ratio requested for another compound
// query selectivity ratio value for entry CC(=O)Nc1nc(C(=O)NNC(=O)CCN2CCN(C)CC2)cs1
5.92

* * *

PROCEDURE TEXT: Selectivity index, ratio of IC50 for cytotoxicity against human WI-38 cells to IC50 for antiproliferative activity against human PC-3 cells
Assay type: toxicity, cell-based
TEST CONTEXT: WI-38 cells and PC-3 cells, read-out: Ratio IC50
1 if selectivity ratio is below 3. -1 if not; exact matches included in -1.

Sample answers from the record:
>  <SMILES STRUCTURE>
CC(=O)Nc1nc(C(=O)NNC(=O)CCN2CCOCC2)cs1

>  <DISCRETE LABEL>
-1

$$$$
>  <SMILES STRUCTURE>
CC(=O)Nc1nc(C(=O)NNC(=O)CN2CCCCC2)cs1

>  <DISCRETE LABEL>
-1

$$$$
>  <SMILES STRUCTURE>
CC(=O)Nc1nc(C(=O)NNC(=O)CCN2CCN(C)CC2)cs1

>  <DISCRETE LABEL>
-1

$$$$
>  <SMILES STRUCTURE>
CC(=O)Nc1nc(C(=O)NNC(=O)CN2CCOCC2)cs1

>  <DISCRETE LABEL>
1

$$$$

Now take the following compound into account.
selectivity ratio strictly < 3 for this compound? CC(=O)Nc1nc(C(=O)NNC(=O)CCN2CCCCC2)cs1
-1

* * *

Tested on: HeLa
PROCEDURE TEXT: Antiproliferative activity against human HeLa cells assessed as inhibition of cell growth incubated for 24 hrs by MTT assay
Format: functional, cell-based
Each entry below carries its recorded IC50.

Take a look at these entries with their results.
>  <SMILES STRUCTURE>
CC(=O)Nc1nc(C(=O)NNC(=O)CCN2CCN(Cc3ccccc3)CC2)cs1

>  <TARGET SYSTEM>
HeLa

>  <TEST VALUE>
23.6 µM

$$$$
>  <SMILES STRUCTURE>
CC(=O)Nc1nc(C(=O)NNC(=O)CCN2CCOCC2)cs1

>  <TARGET SYSTEM>
HeLa

>  <TEST VALUE>
3.81 µM

$$$$
>  <SMILES STRUCTURE>
CC(=O)NNC(=O)c1csc(NC(C)=O)n1

>  <TARGET SYSTEM>
HeLa

>  <TEST VALUE>
57.4 µM

$$$$
>  <SMILES STRUCTURE>
CC(=O)Nc1nc(C(=O)NNC(=O)CCN2CCCCC2)cs1

>  <TARGET SYSTEM>
HeLa

>  <TEST VALUE>
1.67 µM

$$$$

Please state recorded IC50 (tested on HeLa) of CC(=O)Nc1nc(C(=O)NNC(=O)CN2CCN(C)CC2)cs1
78.6 µM
